# Tested Target: Neuropeptide Y receptor type 4 (Homo sapiens, UniProt P50391)
# Sequence (P50391 whole entry): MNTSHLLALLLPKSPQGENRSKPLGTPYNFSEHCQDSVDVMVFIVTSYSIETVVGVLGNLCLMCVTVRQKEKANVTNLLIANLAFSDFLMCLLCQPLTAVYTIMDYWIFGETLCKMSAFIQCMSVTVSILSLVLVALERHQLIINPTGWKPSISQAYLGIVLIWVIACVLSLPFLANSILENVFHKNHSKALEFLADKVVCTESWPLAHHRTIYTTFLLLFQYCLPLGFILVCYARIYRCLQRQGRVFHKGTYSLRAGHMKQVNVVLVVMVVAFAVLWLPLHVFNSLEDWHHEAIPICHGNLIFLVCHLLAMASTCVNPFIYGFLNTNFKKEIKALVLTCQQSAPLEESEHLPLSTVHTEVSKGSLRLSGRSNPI
Recorded Metric: IC50

Form entry - test system: Neuropeptide Y receptor type 4 (Homo sapiens, UniProt P50391); read-out: IC50; molecule: `Cn1nnc(-c2ccc3[nH]c([C@H]4CC[C@@]5(CC4)OC(=O)c4ccccc45)nc3c2)n1` > 10 µM

###

# Tested Target: Neuropeptide Y receptor type 5 (Homo sapiens)
# Assay Name: Displacement of [125I]PYY from human recombinant NPYY5 receptor expressed in mouse LMtk cells
# Assay type: cell-based
Recorded Metric: IC50 (nM)
Reply with just the number (in nM).

Data request, read-out IC50, for `COC(=O)c1ccc2[nH]c([C@H]3CC[C@@]4(CC3)OC(=O)c3ccccc34)nc2c1` 7.7

###

# Assay Name: Plasma concentration in rat plasma at 10 mg/kg, po after 4 hrs
# Type: ADME, organism-based
# Set-up: dose 10 mg/kg, route oral
# Condition Notes: read-out: Drug uptake
Recorded Metric: concentration at 4 h (nM)
Reply with just the number (in nM).

>>> recorded_value("Cn1nnc(-c2ccc3[nH]c([C@H]4CC[C@@]5(CC4)OC(=O)c4ccccc45)nc3c2)n1")
990

Proceeding to the next compound to report its concentration at 4 h.
Data request, read-out concentration at 4 h, for `Cc1nnc(-c2ccc3[nH]c([C@H]4CC[C@@]5(CC4)OC(=O)c4ccccc45)nc3c2)o1` 850

###

# Tested Target: UniProt:P49146
# Sequence (P49146 whole entry): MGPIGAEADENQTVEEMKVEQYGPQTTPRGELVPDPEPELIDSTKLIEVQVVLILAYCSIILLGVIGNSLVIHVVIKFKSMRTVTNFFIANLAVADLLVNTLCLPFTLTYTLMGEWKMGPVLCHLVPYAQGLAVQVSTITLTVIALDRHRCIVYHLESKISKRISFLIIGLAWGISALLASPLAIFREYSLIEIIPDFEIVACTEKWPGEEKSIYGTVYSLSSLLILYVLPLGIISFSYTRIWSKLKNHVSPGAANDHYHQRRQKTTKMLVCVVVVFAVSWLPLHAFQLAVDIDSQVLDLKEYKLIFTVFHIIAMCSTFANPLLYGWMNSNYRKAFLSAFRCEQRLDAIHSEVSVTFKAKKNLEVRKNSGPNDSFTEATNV
# Assay Name: Inhibition of NPYY2 receptor
pIC50: −log10 of the molar value.
Recorded Metric: pIC50

Data request, read-out pIC50, for `Cn1nnc(-c2ccc3[nH]c([C@H]4CC[C@@]5(CC4)OC(=O)c4ccccc45)nc3c2)n1` < 5.00

###

Reported IC50 values are given for each entry in this list.
# Tested Target: Neuropeptide Y receptor type 5 (Homo sapiens, UniProt Q15761)
# Assay Name: Displacement of [125I]PYY from human recombinant NPYY5 receptor expressed in mouse LMtk cells
# Type: cell-based
Reply with just the number (in nM).

Here are 5 molecules together with their reported answers.
>>> recorded_value("O=C1O[C@]2(CC[C@H](c3nc4cc(-c5ccccn5)ccc4[nH]3)CC2)c2ccccc21")
2.4
>>> recorded_value("Cn1nnc(-c2ccc3[nH]c([C@H]4CC[C@@]5(CC4)OC(=O)c4ccccc45)nc3c2)n1")
5.9
>>> recorded_value("O=C1O[C@]2(CC[C@H](c3nc4cc(Br)ccc4[nH]3)CC2)c2ccccc21")
45
>>> recorded_value("O=C1O[C@]2(CC[C@H](c3nc4cc(Cl)ccc4[nH]3)CC2)c2ccccc21")
39
>>> recorded_value("O=C1O[C@]2(CC[C@H](c3nc4cc(C(F)(F)F)ccc4[nH]3)CC2)c2ccccc21")
47

Data request, read-out IC50, for `COC(=O)c1ccc2[nH]c([C@H]3CC[C@@]4(CC3)OC(=O)c3ccccc34)nc2c1Cl` 4.5

Data request, read-out IC50, for `O=C1O[C@]2(CC[C@H](c3nc4cc(-c5nnco5)ccc4[nH]3)CC2)c2ccccc21` 15

Data request, read-out IC50, for `COC(=O)c1cc2[nH]c([C@H]3CC[C@]4(CC3)OC(=O)c3ccccc34)nc2cc1Cl` 1000

Data request, read-out IC50, for `N#Cc1ccc2[nH]c([C@H]3CC[C@@]4(CC3)OC(=O)c3ccccc34)nc2c1` 20

###

# Tested Target: Neuropeptide Y receptor type 5 (Homo sapiens)
# Sequence (Q15761 whole entry): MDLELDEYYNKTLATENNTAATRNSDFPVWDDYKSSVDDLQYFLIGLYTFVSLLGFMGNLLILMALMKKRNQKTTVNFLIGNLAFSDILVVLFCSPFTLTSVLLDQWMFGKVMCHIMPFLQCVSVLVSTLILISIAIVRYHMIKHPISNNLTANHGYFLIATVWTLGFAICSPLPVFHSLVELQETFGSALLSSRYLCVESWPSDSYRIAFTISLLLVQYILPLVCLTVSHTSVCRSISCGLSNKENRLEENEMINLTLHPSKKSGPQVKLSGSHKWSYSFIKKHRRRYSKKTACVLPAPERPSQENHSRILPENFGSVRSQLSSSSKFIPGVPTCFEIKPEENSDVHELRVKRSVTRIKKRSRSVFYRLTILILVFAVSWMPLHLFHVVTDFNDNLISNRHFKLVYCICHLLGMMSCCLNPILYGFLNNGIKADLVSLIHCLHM
# Assay Name: Displacement of [125I]PYY from human recombinant NPYY5 receptor expressed in mouse LMtk cells
# Type: cell-based
Recorded Metric: pIC50
Quick note: pIC50 values are minus log10 of concentrations in mol/L.

Here are 3 compounds together with their reported answers.
>>> recorded_value("O=C1O[C@]2(CC[C@H](c3nc4cc(Cl)c(-c5ccccc5)cc4[nH]3)CC2)c2ccccc21")
8.66
>>> recorded_value("O=C1O[C@]2(CC[C@H](c3nc4ccc(-c5ccccc5)cc4[nH]3)CC2)c2ccccc21")
8.64
>>> recorded_value("Cc1nnc(-c2ccc3[nH]c([C@H]4CC[C@]5(CC4)OC(=O)c4ccccc45)nc3c2)o1")
6.00

Proceeding to the next compound to report its pIC50.
Data request, read-out pIC50, for `O=C1O[C@]2(CC[C@H](c3nc4cc(-c5noc(C(F)(F)F)n5)ccc4[nH]3)CC2)c2ccccc21` 8.68

Hello, the source for this data is ChEMBL document CHEMBL1144170, in case you need it.
